Origin of values: ChEMBL document CHEMBL4359921

Entries and their IC50
- Tested on: SK-OV-3
- experiment.notes: Cytotoxicity against human SKOV3 cells transfected with shRNA assessed as reduction in cell viability incubated for 96 hrs in presence of doxycycline by MTT assay
- conditions.used: SK-OV-3, 96 h
Answer with a number only, understood to be in µM.

Oc1ccc(/C=C/c2cc(O)cc(O)c2)cc1 [RESVERATROL]
39.7
COc1ccc2nc(C)cc(N/N=C/c3c[nH]cn3)c2c1
6.73
Nc1c2ccccc2nc2ccccc12 [AMINACRINE]
2.57

[ask] Look up IC50: "COc1ccc2nc(C)cc(N/N=C/c3ccc(C(=O)O)cc3)c2c1"
[reply] 61.3

[ask] Form field: reported IC50 of "COc1ccc2nc(C)cc(N/N=C/c3ccc(O)cc3)c2c1"
[reply] 2.58

[ask] Name the reported IC50 value associated with the molecule "COc1ccc2nc(C)cc(N/N=C/Cc3ccccc3)c2c1"
[reply] 49.7

[ask] Look up IC50 for this molecule: "COc1ccc2nc(C)cc(N/N=C/c3cccc(OC)c3O)c2c1"
[reply] 2.78
